Test system: Rattus norvegicus
Assay: Systolic blood pressure (SBP) in anesthetized spontaneously hypertensive rats (SHR) before administration of 75 mg/kg dose perorally.
Assay type: functional
Parameters: unit: mmHg
Conditions: route oral
I'd be grateful if you could share measured Systolic blood pressure for these entries.

{"columns": ["compound", "parameter_measured", "measured_value"],
 "data": [
  ["O=c1cc(-c2ccccc2)oc2cc(O)ccc12 [7-HYDROXYFLAVONE]", "Systolic blood pressure", 217],
  ["CC(C)NCC(O)COc1ccc2oc(-c3ccccc3)cc(=O)c2c1 (configuration not stated)", "Systolic blood pressure", 199],
  ["CCCNCC(COc1ccc2c(=O)cc(-c3ccccc3)oc2c1)OC(=O)c1ccccc1 (configuration not stated)", "Systolic blood pressure", 187],
  ["CC(C)NCC(O)COc1ccc2c(=O)c(Cc3ccccc3)c(-c3ccccc3)oc2c1 (configuration not stated)", "Systolic blood pressure", 200]
]}

Batch lookup, Systolic blood pressure per entry.
1. CC(C)NCC(O)COc1ccc2c(=O)cc(-c3ccccc3)oc2c1 (configuration not stated)
2. CC(C)NCCCOc1ccc2c(=O)cc(-c3ccccc3)oc2c1
3. CC(C)NCC(O)COc1cccc2c(=O)cc(-c3ccccc3)oc12 (configuration not stated)

Response:
1: 208; 2: 204; 3: 209
